measured target: 5HT-Transporter (Homo sapiens, UniProt P31645)
Construct: Human platelet membranes (Oceanix Biosciences Corporation, Hanover, Md., USA) were thawed; tissue Oceanix Biosciences Corporation; host or cells: human platelet membranes
Sequence (P31645 whole entry): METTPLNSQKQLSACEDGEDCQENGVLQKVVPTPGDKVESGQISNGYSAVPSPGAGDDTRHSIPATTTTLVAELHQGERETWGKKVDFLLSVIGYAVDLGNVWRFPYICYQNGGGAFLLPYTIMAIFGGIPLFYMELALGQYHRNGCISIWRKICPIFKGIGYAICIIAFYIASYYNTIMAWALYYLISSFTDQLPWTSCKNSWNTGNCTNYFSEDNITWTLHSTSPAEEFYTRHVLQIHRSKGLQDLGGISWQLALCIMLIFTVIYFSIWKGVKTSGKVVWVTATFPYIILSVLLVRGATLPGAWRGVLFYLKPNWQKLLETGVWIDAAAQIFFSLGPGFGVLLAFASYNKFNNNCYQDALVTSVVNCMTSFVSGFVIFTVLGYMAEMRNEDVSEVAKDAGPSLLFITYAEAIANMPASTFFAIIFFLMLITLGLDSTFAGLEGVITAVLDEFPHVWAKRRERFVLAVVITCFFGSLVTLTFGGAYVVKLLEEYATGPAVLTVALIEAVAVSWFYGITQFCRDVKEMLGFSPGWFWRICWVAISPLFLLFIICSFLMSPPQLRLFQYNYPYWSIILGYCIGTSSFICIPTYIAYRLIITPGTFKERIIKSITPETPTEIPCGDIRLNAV
assay text: Binding experiment for the 5HT-transporter ([3H]paroxetine, human platelet membranes)
condition parameters: [3H]paroxetine 0.5 nM, read-out: h-5HTT pIC50 (converted)
The molecules listed here are annotated with their IC50.

O=c1c(NC2CCN(CCOc3ccccc3)CC2)nccn1CC1CCCCO1 (stereo not drawn) ... > 10 µM
NCCCn1ccnc(NC2CCN(CCOc3ccccc3)CC2)c1=O ... > 10 µM

Proceeding to the next molecule to report its IC50.
Hey, 5HT-Transporter (Homo sapiens, UniProt P31645) data for `O=c1c(N2CCN(CCOc3ccc(F)cc3)CC2)nccn1Cc1ccco1` : IC50 came out at > 10 µM
